- measured-on: UniProt:P54829
- Sequence (P54829 whole entry): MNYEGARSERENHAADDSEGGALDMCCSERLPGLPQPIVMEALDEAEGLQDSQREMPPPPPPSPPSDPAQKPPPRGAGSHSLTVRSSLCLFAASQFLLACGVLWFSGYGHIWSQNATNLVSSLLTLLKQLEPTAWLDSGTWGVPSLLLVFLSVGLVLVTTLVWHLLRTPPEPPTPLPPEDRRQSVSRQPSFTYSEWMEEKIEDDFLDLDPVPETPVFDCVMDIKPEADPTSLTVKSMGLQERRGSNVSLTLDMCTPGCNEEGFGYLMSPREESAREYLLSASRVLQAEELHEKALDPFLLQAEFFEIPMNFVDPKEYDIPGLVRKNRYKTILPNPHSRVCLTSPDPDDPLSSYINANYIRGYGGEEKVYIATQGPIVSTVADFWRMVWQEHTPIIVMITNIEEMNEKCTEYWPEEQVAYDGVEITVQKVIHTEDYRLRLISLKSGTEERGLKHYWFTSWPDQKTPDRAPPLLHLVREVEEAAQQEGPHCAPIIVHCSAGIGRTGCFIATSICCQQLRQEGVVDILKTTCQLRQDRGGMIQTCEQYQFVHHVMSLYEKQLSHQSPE
Labelling field: enter Satisfied if recorded IC50 is less than 40 µM. Enter Not satisfied if it equals or exceeds that cut-off.

Worked cases, answers included:
[
  {
    "chemical-string": "O=S(=O)(Nc1ccc(-c2nc3cc(NS(=O)(=O)c4ccccc4F)ccc3o2)cc1)c1ccccc1F",
    "qualitative-label": "Satisfied"
  },
  {
    "chemical-string": "COc1ccc(S(=O)(=O)Nc2ccc3oc(-c4ccccc4)nc3c2)cc1",
    "qualitative-label": "Satisfied"
  }
]

With those in mind, consider the next compound.
Q. Hello, is IC50 of the following compound strictly smaller than 40 µM? O=S(=O)(Nc1ccc2oc(-c3ccccc3)nc2c1)c1ccccc1Cl
A. Satisfied

These data points were gathered from ChEMBL document CHEMBL4387722.
